System: EKVX
assayOverview: NCI tumour cell line growth inhibition, 48 h
Activity calls are given as the source filed them. Cut-off read from the data, not from the text of the source: active = GI50 up to about 1.1 µM and inactive = higher.

| compound | GI50 |
| --- | --- |
| Cc1ccc(S(=O)(=O)N/N=C\c2c3ccccc3[n+]([O-])c3ccccc23)cc1 | 20 µM (inactive) |
| CC(C)(C)C1=CC(=CC=C2C=CN(CCCCCCCCCCCO)C=C2)C=C(C(C)(C)C)C1=O | 1.96 µM (inactive) |
| CC1C2=C(O)CC(C)(C)CC2=NC2=C1C(=O)CC(C)(C)C2 (stereo not drawn) | > 100 µM (inactive) |
| O=c1[nH]c2cc(Cl)ccc2nc1/C(=N/Nc1ccccc1)C(O)c1ccco1 (stereo not drawn) | > 100 µM (inactive) |
| CCCC(=O)OCC1(CO)C/C(=C/CC(C(C)C)C(C)C)C(=O)O1 (stereo not drawn) | > 100 µM (inactive) |
| CC(=O)NC1(c2cc3ccccc3s2)CCCCCC1 | 19.1 µM (inactive) |
| C/C(Cc1ccc2c(c1)OCO2)=N\NC(=O)C(C)Sc1nnc(SC(C)C(=O)N/N=C(\C)Cc2ccc3c(c2)OCO3)s1 (stereo not drawn) | 81.3 µM (inactive) |
| C[C@H](CCC(=O)O)[C@H]1CC[C@H]2[C@@H]3[C@H](O)[C@H](O)[C@@H]4C[C@H](O)CC[C@]4(C)[C@H]3CC[C@]12C | > 100 µM (inactive) |

* * *

As shown below, each of these compounds has a reported GI50 value.
Tested on: HCT-116
assayOverview: NCI tumour cell line growth inhibition, 48 h
Activity calls are given as the source filed them. Rule as the data show it: active = GI50 up to about 1.1 µM and inactive = higher.

| compound | GI50 |
| --- | --- |
| CCOC(=O)C(C)(C)Oc1ccc2c(=O)cc(-c3ccc(Cl)cc3)oc2c1 | > 100 µM (inactive) |
| CSc1nncc(-c2cc3c(c(SC)n2)CCCC3)n1 | > 100 µM (inactive) |
| C=CC[C@@H]1C(=O)[C@@]2(O[Si](C(C)C)(C(C)C)C(C)C)CC[C@@H]1C[C@H]2NC(=O)OCC(Cl)(Cl)Cl | 27.9 µM (inactive) |
| Clc1c(Cl)c(Cl)c2nn(C3CCCO3)nc2c1Cl (stereo unspecified) | 50.6 µM (inactive) |
| CC(=O)N(O)Cc1ccccc1 | > 100 µM (inactive) |
| CC(C)(C)c1cc(C2=NN(c3ccccc3)C(c3ccccc3)C2)cc(C(C)(C)C)c1O (stereo unspecified) | > 100 µM (inactive) |
| CN(C)c1ccc(/C=C(\NC(=O)c2ccccc2)c2nc3ccc4c(c3[nH]2)C(=O)c2ccccc2C4=O)cc1 | 20.9 µM (inactive) |
| O=Cc1ccc2c(c1)CC1(C2)Cc2ccc(C=O)cc2C1 | 7.52 µM (inactive) |
| O=c1[nH]nc(-c2ccccc2)n1/N=C/c1cccnc1 | 54.3 µM (inactive) |
| CC(=O)[O-].Cc1ncc(CO)c(/C=N/NC(N)=S)c1[O-].[Zn+2] | > 100 µM (inactive) |
| CC(Oc1ccc(Oc2cnc3ccc(Cl)cc3n2)cc1)C(=O)O (stereo unspecified) | 58.7 µM (inactive) |

* * *

Test system: MOLT-4
assayOverview: NCI tumour cell line growth inhibition, 48 h
Active and inactive are the calls of the source. No stated cut-off is given here; in the data, active = GI50 up to about 1.1 µM and inactive = higher.

| molecule | GI50 |
| --- | --- |
| CCOC(=O)/C(=C\NCc1ccc2c(c1)OCO2)c1nc2ccccc2[nH]1 | 30.5 µM (inactive) |
| O=c1[nH]nc(Cc2ccccc2)n1-n1cnnc1 | > 100 µM (inactive) |
| O=C(CO)CC(=O)C(=O)Nc1nc([N+](=O)[O-])cs1 | > 100 µM (inactive) |
| CC(=O)CCn1c(=S)sc2ccccc21 | > 100 µM (inactive) |
| CCOC(=O)c1c(N2CCCC2)nsc1Nc1ccc(F)cc1 | 23.9 µM (inactive) |
| CCc1n[nH]c(=O)n1NC(=O)CCCC(=O)O | > 100 µM (inactive) |
| CC(C)(C)C1(c2ccc(C3(c4ccccc4)Oc4ccccc4S3)[nH]2)Oc2ccccc2S1 (configuration not stated) | 65.5 µM (inactive) |
| CN1C(=O)C(O)CC1c1ccc(C(F)(F)F)cc1 (configuration not stated) | > 100 µM (inactive) |
| CC1C2=C(O)CC(C)(C)CC2=NC2=C1C(=O)CC(C)(C)C2 (configuration not stated) | > 100 µM (inactive) |
| CCOC(=O)CSc1[nH]c2nc(C)nc(Cl)c2c1C#N | > 10 µM (inactive) |
| CC(=O)OC1CCC2C3CCc4c(C)ccc(OS(=O)(=O)c5ccccc5)c4C3CCC12C (configuration not stated) | 6.32 µM (inactive) |
| COc1cc(Br)cc2nc(-c3cccs3)oc12 | > 100 µM (inactive) |

* * *

Test system: NCI/ADR-RES
assayOverview: NCI tumour cell line growth inhibition, 48 h
Calls of active or inactive are those of the source. No stated cut-off is given here; in the data, active = GI50 up to about 1.1 µM and inactive = higher. Square brackets hold non-standard residues; d marks the D form. Peptide text beside a SMILES is read from it. * marks the point of attachment. Tyr(3-Br) = N[C@@H](Cc1ccc(O)c(Br)c1)C(=O)O; Boc = CC(C)(C)OC(=O)*
Labels: true (active), false (inactive)

| molecule | targetOrTestSystem | classification |
| --- | --- | --- |
| CN(C)CCNC(=O)c1cccc2c(NC(CCCNC(=N)N)C(=O)O)c3ccccc3nc12 (stereo not given) | NCI/ADR-RES | false |
| N/C(=N\O)N/N=C\c1c(O)cc(O)cc1O | NCI/ADR-RES | false |
| CCOC(=O)c1c(N2CCCC2)nsc1Nc1ccc(F)cc1 | NCI/ADR-RES | false |
| COC(=O)C1(O)c2ccccc2N=C2C(=O)c3ccccc3N21 (stereo not given) | NCI/ADR-RES | false |
| O=[N+]([O-])c1ccc2c(Nc3ccccc3-c3ccccc3Nc3c4ccccc4nc4cc([N+](=O)[O-])ccc34)c3ccccc3nc2c1 | NCI/ADR-RES | false |
| CC1=C2C(O)C(C(C)C(=O)NCC(C)C)CCC2(C)C=CC1=O (stereo not given) | NCI/ADR-RES | false |
| CCc1n[nH]c(=O)n1NC(=O)CCCC(=O)O | NCI/ADR-RES | false |
| COc1ccccc1N1C(=O)C2C3c4ccccc4C(OC(C)=O)(c4ccccc43)C2C1=O (stereo not given) | NCI/ADR-RES | false |
| COC(=O)[C@H](Cc1ccc(O)c(Br)c1)NC(=O)[C@H](Cc1ccc(O)cc1)NC(=O)OC(C)(C)C (Boc-Tyr-[Tyr(3-Br)]-OMe) | NCI/ADR-RES | false |
| Clc1c(Cl)c(Cl)c2nn(C3CCCO3)nc2c1Cl (stereo not given) | NCI/ADR-RES | false |
| CC(=O)Nc1sccc1S(=O)(=O)c1ccc(Cl)cc1 | NCI/ADR-RES | false |
| O=C(C[C@@H]1CCCN2CCCC[C@H]12)N1c2ccccc2Sc2ccc(Cl)cc21 | NCI/ADR-RES | false |
| O=C(Cc1ccc(Cl)cc1)Nc1ccc2oc(-c3ccccc3)nc2c1 | NCI/ADR-RES | false |
| CC1(C)C2CCC(=O)C1C(OCc1ccccc1)C2 (stereo not given) | NCI/ADR-RES | false |
| CCOC(=O)c1c2c(n(Cc3ccccc3)c1C)C(=O)C(=O)c1ccccc1-2 | NCI/ADR-RES | true |
| C[C@]12c3c4cc(NC(=O)C(=O)NCc5ccc(-c6ccccn6)nc5)cc3Oc3cc(NC(=O)C(=O)NCc5ccc(-c6ccccn6)nc5)cc(c31)OC1C=C(NC(=O)C(=O)NCc3ccc(-c5ccccn5)nc3)C=C(O4)C12 (stereo not given in full) | NCI/ADR-RES | false |
| COCOc1ccc(C(=O)Oc2cccc3c2OC(C)(C)O3)c(OCOC)c1 | NCI/ADR-RES | false |
| O=C(O)c1ccc(Nc2nc3ccccc3nc2C(=O)O)cc1 | NCI/ADR-RES | false |
| O=Cc1ccc(-c2cc(C=O)c(-c3cccs3)[nH]2)s1 | NCI/ADR-RES | false |
| COc1cc(/C=C2/C(=O)N(C(=O)c3ccccc3O)N=C2C)cc(OC)c1OC | NCI/ADR-RES | false |

* * *

Tested on: OVCAR-4
assayOverview: NCI tumour cell line growth inhibition, 48 h
Activity calls are given as the source filed them. Cut-off read from the data, not from the text of the source: active = GI50 up to about 1.1 µM and inactive = higher.

| compound | GI50 |
| --- | --- |
| O=C1C(Cl)N(c2ccc(Cl)cc2Cl)C1c1c[nH]c2ccccc12 (centres undefined) | > 100 µM (inactive) |
| CC1=CCC[C@H]2[C@](C)(CC3=CC(=O)C(SCC(C)C)=CC3=O)[C@@H](C)CC[C@]12C | 15.3 µM (inactive) |
| CC(C)(C)OC(=O)CN1CCNCCN(CC(=O)OC(C)(C)C)CC1 | > 100 µM (inactive) |
| CCOC(=O)C1=C(Nc2ccc(NC3=C(C(=O)OCC)C(=O)CS3)cc2)SCC1=O | 30.9 µM (inactive) |
| Cc1oc2c(c1C(=O)c1ccccc1)C(=O)c1ccccc1C2=O | 3.21 µM (inactive) |
| O=c1[nH]nc(Cc2ccccc2)n1-n1cnnc1 | > 100 µM (inactive) |
| O=Cc1ccc(-c2cc(C=O)c(-c3cccs3)[nH]2)s1 | 26 µM (inactive) |
| O=[N+]([O-])c1ccc2nc3ccscc-3c2c1 | 15.5 µM (inactive) |
| O=C(O)Cc1ccc(Oc2nc3ccccc3nc2C(=O)O)cc1 | > 100 µM (inactive) |
| COc1ccc(OC(C(=O)O)c2ccccc2)c2c1CCCC2=O (centres undefined) | > 100 µM (inactive) |
| O=C(/N=C(/Nc1ccccc1)SCS/C(=N\C(=O)c1ccco1)Nc1ccccc1)c1ccco1 | 82.2 µM (inactive) |
| CCOc1ccc(/N=N/c2ccc(-c3ccc(/N=N/c4c(O)ccc5cc(S(=O)(=O)O)cc(S(=O)(=O)O)c45)cc3)cc2)cc1 | > 100 µM (inactive) |
| CCN(CC)c1ccc(/N=N\c2ccc(-c3nc4ccc[n+](C)c4s3)cc2)cc1 | 6.5 µM (inactive) |
| CCOC(=O)NC(=S)c1ccc(O)c2ccccc12 | > 100 µM (inactive) |
| COC1(CC[C@@H](C)COC2OC(CO)C(O)C(O)C2O)OC2C[C@H]3[C@@H]4CC[C@H]5C[C@@H](OC6OC(CO)C(OC7OC(CO)C(O)C(O)C7O)C(O)C6OC6OC(C)C(O)C(O)C6O)[C@H](O)C[C@]5(C)[C@H]4CC[C@]3(C)C2[C@@H]1C (some centres undefined) | 1.97 µM (inactive) |
| Cc1ccc(S(=O)(=O)Oc2ccc(OS(=O)(=O)c3ccc(C)cc3)c3c2C(=O)c2ccccc2C3=O)cc1 | > 100 µM (inactive) |
| Cc1cn(C2CC(n3cc(Cn4cc(Br)c(=O)[nH]c4=O)nn3)C(CO)O2)c(=O)[nH]c1=O (centres undefined) | > 100 µM (inactive) |
| C[n+]1cn(C2=C([N-]S(=O)(=O)c3ccccc3)C(=O)c3ccccc3C2=O)c2ccccc21 | 1.59 µM (inactive) |
| Nc1cc(C(=O)O)nc(O)n1 | > 100 µM (inactive) |
